- System: CAKI-1
- procedure-summary: Fold selectivity expressed as ratio of LC50 for Caki cells with non-mutant p53 to LC50 for Ramos RA1 cells with a mutation at Asp 254
- Format: functional, Homo sapiens
What Fold selectivity was measured for each of the following?
API note: the answer field is a bare number with no unit suffix.

According to the records, this compound O=C1C2CCN(CC2)C1(CO)CO displays Fold selectivity of 9.42

According to the records, this compound C=C1C(=O)C2CCC1C2 (stereo not drawn) displays Fold selectivity of 13.16

According to the records, this compound C=C1C(=O)C2(CS(=O)(=O)NCC(C)C)CCC1C2(C)C (stereo not drawn) displays Fold selectivity of 2.13

According to the records, this compound C=C1C(=O)[C@@]2(C)CC[C@H]1C2(C)C displays Fold selectivity of 1

According to the records, this compound C=C1C(=O)C2(C(=O)OC)CCC1C2(C)C (stereo not drawn) displays Fold selectivity of 1.36

According to the records, this compound C=C1C(=O)C2(C(=O)O)CCC1C2(C)C (stereo not drawn) displays Fold selectivity of 1.46

According to the records, this compound C=C1C(=O)C2(CS(=O)(=O)NCc3ccc(OC)cc3)CCC1C2(C)C (stereo not drawn) displays Fold selectivity of 2.72

According to the records, this compound C=C1C(=O)C2(C(=O)Nc3ccc(OC)cc3)CCC1C2(C)C (stereo not drawn) displays Fold selectivity of 7.55
